Origin of measurements: the NIST ThermoML archive (doi:10.1016/j.fluid.2016.09.021)

- setup_conditions: 393 K; 40000 kPa; Liquid; Vibrating tube method
This section presents compounds with their documented mass density values.
reported_endpoint: mass density (kg/m3)

- substance_smiles: "Cc1ccccc1"
  readout_number: 816.9
- substance_smiles: "c1ccccc1"
  readout_number: 814.6
- substance_smiles: "CCCCCCC"
  readout_number: 650.8
- substance_smiles: "CCCCCCCCCCCC"
  readout_number: 714.7

----------
This section presents molecules with their documented mass density values.
- setup_conditions: 433 K; 30000 kPa; Liquid; Vibrating tube method

- molecule: "CCCCCCC [heptane]"
  value_units: "kg/m3"
  mass density: 611.5
- molecule: "CCCCCCCCCCCC [dodecane]"
  value_units: "kg/m3"
  mass density: 682.8
- molecule: "Cc1ccccc1 [toluene]"
  value_units: "kg/m3"
  mass density: 774.9
- molecule: "c1ccccc1 [benzene]"
  value_units: "kg/m3"
  mass density: 767.8

----------
This section presents compounds with their documented mass density values.
- setup_conditions: 313 K; 20000 kPa; Liquid; Vibrating tube method

- substance_smiles: "CCCCCCCCCCCC"
  mass density, kg/m3: 750.1
- substance_smiles: "Cc1ccccc1"
  mass density, kg/m3: 866.1
- substance_smiles: "c1ccccc1"
  mass density, kg/m3: 871.5
- substance_smiles: "CCCCCCC"
  mass density, kg/m3: 688
